TARGET: T1, exemplary TAT frataxin fusion molecule (HIV-1, UniProt Q16595 1-210)
T1 construct: in the bridging assays biotinylated and sulfotagged forms were used; also called TAT-FXN fusion molecule; TAT FXN fusion molecule
T1 sequence: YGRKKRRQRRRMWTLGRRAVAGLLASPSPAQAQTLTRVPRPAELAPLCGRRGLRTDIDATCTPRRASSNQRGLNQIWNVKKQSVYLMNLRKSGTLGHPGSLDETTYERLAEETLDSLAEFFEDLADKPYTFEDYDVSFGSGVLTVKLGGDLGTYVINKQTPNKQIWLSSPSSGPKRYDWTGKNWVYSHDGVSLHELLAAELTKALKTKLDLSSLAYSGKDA
ASSAY_OVERVIEW: PK sandwich ELISA in human plasma, antibody as capture, HRP anti-frataxin mAb detection
Let's look at some binders and their measured S/N at plasma conc. 0.400 ng/mL.
READOUT_LABEL: S/N at plasma conc. 0.400 ng/mL

1. antibody 10-4 (antibody, V domains shown, Rabbit monoclonal) VH: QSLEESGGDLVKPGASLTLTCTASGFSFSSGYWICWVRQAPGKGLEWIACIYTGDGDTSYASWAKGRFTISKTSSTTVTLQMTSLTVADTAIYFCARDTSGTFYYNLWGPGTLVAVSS VL: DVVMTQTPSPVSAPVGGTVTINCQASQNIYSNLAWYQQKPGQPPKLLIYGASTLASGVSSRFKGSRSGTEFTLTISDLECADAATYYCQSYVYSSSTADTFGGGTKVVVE
1.4
2. antibody 12-10 (antibody, V domains shown, Rabbit monoclonal) VH: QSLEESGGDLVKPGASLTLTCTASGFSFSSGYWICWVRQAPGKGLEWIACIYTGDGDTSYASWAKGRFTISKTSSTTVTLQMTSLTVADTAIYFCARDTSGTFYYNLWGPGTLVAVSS VL: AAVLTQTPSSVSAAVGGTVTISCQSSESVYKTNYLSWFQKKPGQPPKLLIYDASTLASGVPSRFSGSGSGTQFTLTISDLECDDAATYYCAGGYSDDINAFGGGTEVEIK
1.4
